Data provenance: BindingDB's records for doi:10.1016/j.bmcl.2006.10.074

For UniProtKB P28845, measured IC50 is reported for the entries below.
Sequence (P28845 whole entry): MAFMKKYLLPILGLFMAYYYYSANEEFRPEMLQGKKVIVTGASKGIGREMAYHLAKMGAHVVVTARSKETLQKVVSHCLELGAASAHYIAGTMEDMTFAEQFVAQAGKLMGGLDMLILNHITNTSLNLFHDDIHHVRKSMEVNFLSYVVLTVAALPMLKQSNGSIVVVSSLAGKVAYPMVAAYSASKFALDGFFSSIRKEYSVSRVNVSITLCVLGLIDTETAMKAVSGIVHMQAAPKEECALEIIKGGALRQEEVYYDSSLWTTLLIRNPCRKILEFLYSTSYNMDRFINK
Measured endpoint: IC50 (nM)

INSERT INTO measurements (cpd_smiles, measured_value) VALUES
  ('CC(C)(Oc1ccccc1Cl)C(=O)N[C@H]1C2C[C@@H]3C[C@@H]1C[C@@](C(=O)O)(C2)C3', 8),
  ('CC(C)(Oc1ccccc1Cl)C(=O)N[C@H]1C2C[C@@H]3C[C@@H]1C[C@@](C(=O)NS(=O)(=O)c1ccccc1)(C2)C3', 500);

----------
These records show IC50 for 11-beta-hydroxysteroid dehydrogenase 1 (Mus musculus).
Measured endpoint: IC50 (nM)

INSERT INTO measurements (cpd_smiles, target_or_system, result_unit, measured_value) VALUES
  ('CC(C)(Oc1ccccc1)C(=O)N[C@H]1C2C[C@@H]3C[C@@H]1C[C@@](C(N)=O)(C2)C3', '11-beta-hydroxysteroid dehydrogenase 1 (Mus musculus)', 'nM', 4),
  ('CC(C)(Oc1ccc(Cl)cc1)C(=O)N[C@H]1C2C[C@@H]3C[C@@H]1C[C@@](C(=O)NCc1ccc(-c4nnn[nH]4)cc1)(C2)C3', '11-beta-hydroxysteroid dehydrogenase 1 (Mus musculus)', 'nM', 18),
  ('CC(C)(Oc1ccccc1Cl)C(=O)N[C@H]1C2C[C@@H]3C[C@@H]1C[C@@](C(=O)NS(=O)(=O)c1ccccc1)(C2)C3', '11-beta-hydroxysteroid dehydrogenase 1 (Mus musculus)', 'nM', 1000),
  ('CC(C)(Oc1ccc(Cl)cc1)C(=O)N[C@H]1C2C[C@@H]3C[C@@H]1C[C@@](C(=O)NCc1cncs1)(C2)C3', '11-beta-hydroxysteroid dehydrogenase 1 (Mus musculus)', 'nM', 11),
  ('CNC(=O)NC(=O)[C@@]12CC3C[C@H](C[C@H](C1)[C@H]3NC(=O)C(C)(C)Oc1ccc(Cl)cc1)C2', '11-beta-hydroxysteroid dehydrogenase 1 (Mus musculus)', 'nM', 8),
  ('CC(C)(Oc1ccc(Cl)cc1)C(=O)N[C@H]1C2C[C@@H]3C[C@@H]1C[C@@](C(=O)O)(C2)C3', '11-beta-hydroxysteroid dehydrogenase 1 (Mus musculus)', 'nM', 70);
